- Tested on: A549/ATCC NSCLC
- test.method.notes: NCI-60 one-dose screen, 48 h (100 = growth as untreated, 0 = no growth, -100 = all killed)
- conditions.used: 10 µM unless noted
This is part of a sample that, as a whole, favours compounds with a hit. Of some 83,000 tested, about 20% had one in any assay.
In this section, each of the compounds is paired with its reported growth.
assay.endpoint: growth (%)

>>> number("Cc1ccc(-c2nc3ccccc3c(=O)n2/N=C/c2cccc3ccccc23)cc1")
80.1
>>> number("COc1cc(C2CC(c3ccc(Nc4ccnc5cc(Cl)ccc45)cc3)=NN2c2ccccc2)cc(OC)c1OC (centres undefined)")
64.6
>>> number("CCOC(=O)c1ccc(NCCC(=O)O)cc1")
103
>>> number("COC(=O)c1cc(Cl)cc([N+](=O)[O-])c1O")
105
>>> number("O=C(CI)NCCNc1cccc2c(S(=O)(=O)O)cccc12")
110
>>> number("CCCCCCCCCCCCCCC(C(=O)OCC)C(=O)OCC")
109
>>> number("CCOC(=O)c1ccccc1SC(C[N+](=O)[O-])c1ccccc1 (centres undefined)")
78.7
>>> number("Fc1ccc2nc(-c3ccc(-c4noc(-c5ccc(Cl)cc5)n4)cc3)[nH]c2c1")
100
>>> number("CN1CCN(Cc2ccc(NC(=O)c3cnc(F)c(C#Cc4cnc(N)c5ncccc45)c3)cc2C(F)(F)F)CC1")
23.3
>>> number("O=C(Nc1ccc(Oc2ccc(Nc3nc4ccccc4s3)cc2)cc1)Nc1ccc(Cl)c(C(F)(F)F)c1")
9.75
>>> number("O=C(OCc1ccc2c(Cl)cc(Cl)c(O)c2n1)c1cc2ccccc2[nH]1")
-54.2
>>> number("COc1ccc(-c2nsc3c2NC(=O)CC3c2ccc3c(c2)OCO3)cc1 (centres undefined)")
26.6
>>> number("CC(=O)N1N=C(c2ccc(C)cc2)CC1c1cn(-c2ccccc2)nc1-c1cccc(Nc2ccnc3cc(Cl)ccc23)c1 (centres undefined)")
68.4
>>> number("CCCCn1c(C)nc2ccc(Nc3nc(Cl)nc4nc[nH]c34)cc21")
81.4

###

- System: UACC-257 melanoma
- test.method.notes: NCI-60 one-dose screen, 48 h
- conditions.used: 10 µM unless noted
The panel holds about 83,000 compounds, 20% with a hit somewhere; the sample as a whole holds those more often. The source made the active and inactive calls. The calls were made as follows: active = growth percent below 10; inactive = the rest.
Outcome codes: label 1 for active, label 0 for inactive

>>> label_class("O=C(c1ccc(C(F)(F)F)c(Cl)c1)N(Cc1ccc(Cl)cc1)c1ccc(-c2cc(C(F)(F)F)[nH]n2)c(O)c1")
"label 0"
>>> label_class("OC(c1cc2cc(Cl)ccc2c2cc(C(F)(F)F)ccc12)C1CCCCN1 (configuration not stated)")
"label 1"
>>> label_class("Cc1cc(C)cc(NC(=O)Cn2nncc2CN2C(=O)CSC2=O)c1")
"label 0"
>>> label_class("COc1ccc2c(c1)CCCC21C(=O)Nc2ccccc21 (configuration not stated)")
"label 0"
>>> label_class("COc1ccc(/C=C(/C(=O)N2CCN(c3ccccc3)CC2)c2cc(OC)c(OC)c(OC)c2)cc1N")
"label 0"
>>> label_class("CCCc1n(Cc2ccc3ccccc3n2)cc[n+]1Cc1ccc2ccccc2n1")
"label 1"
>>> label_class("CSC1=NC(=Nc2c(C)cccc2C)C2(CCC(C(C)(C)C)CC2)N1c1ccc(Cl)cc1 (configuration not stated)")
"label 0"
